Attribution: patent US5298492A

biological target: NEP (neutral endopeptidase) (Homo sapiens)
Sequence (P08473 whole entry, species assumed): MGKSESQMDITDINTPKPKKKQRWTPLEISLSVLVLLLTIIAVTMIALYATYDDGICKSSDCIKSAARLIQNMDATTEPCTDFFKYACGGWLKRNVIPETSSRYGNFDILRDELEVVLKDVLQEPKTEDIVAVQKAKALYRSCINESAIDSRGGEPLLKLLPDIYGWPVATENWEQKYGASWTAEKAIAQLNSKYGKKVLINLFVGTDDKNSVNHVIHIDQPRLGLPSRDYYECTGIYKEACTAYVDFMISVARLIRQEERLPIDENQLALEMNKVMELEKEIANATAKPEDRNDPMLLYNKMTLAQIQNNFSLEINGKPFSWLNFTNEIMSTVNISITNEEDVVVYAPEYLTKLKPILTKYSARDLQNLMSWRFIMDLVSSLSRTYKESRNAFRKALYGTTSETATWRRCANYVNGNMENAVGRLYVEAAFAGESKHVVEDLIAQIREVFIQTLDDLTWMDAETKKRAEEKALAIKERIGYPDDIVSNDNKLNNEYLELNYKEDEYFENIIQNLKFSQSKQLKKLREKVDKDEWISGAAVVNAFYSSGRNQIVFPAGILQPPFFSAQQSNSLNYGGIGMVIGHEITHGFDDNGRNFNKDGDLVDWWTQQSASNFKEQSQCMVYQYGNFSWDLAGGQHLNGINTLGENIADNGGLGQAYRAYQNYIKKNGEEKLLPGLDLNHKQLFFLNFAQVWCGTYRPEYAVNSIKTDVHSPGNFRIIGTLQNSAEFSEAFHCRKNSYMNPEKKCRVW
Here the recorded IC50 is given for each entry.
measurement-label: IC50 (nM)

entry_smiles=CCC[C@H](N[C@@H](CNC(=O)[C@H](CCCCNC(=O)OCc1ccccc1)NS(C)(=O)=O)C(=O)O)C(=O)N[C@@H](Cc1ccc(O)cc1)C(=O)OC relation== assay_result=78
entry_smiles=CCN=C(NCC)NCCCC[C@H](NS(C)(=O)=O)C(=O)NC[C@H](N[C@@H](Cc1ccccc1)C(=O)N[C@@H](Cc1ccc(O)cc1)C(=O)O)C(=O)O relation== assay_result=95
entry_smiles=CS(=O)(=O)N[C@@H](CCCCNC(=O)OCc1ccccc1)C(=O)NC[C@H](N[C@H](C(=O)N[C@@H](Cc1ccc(O)cc1)C(=O)O)C1CCCCC1)C(=O)O relation=> assay_result=300
entry_smiles=CCC[C@H](N[C@@H](CNC(=O)[C@H](CCCCNC(=O)OCc1ccccc1)NS(C)(=O)=O)C(=O)O)C(=O)N[C@@H](Cc1ccc(O)cc1)C(=O)O relation== assay_result=2
